- test_target: 5-HT2B receptor (Homo sapiens)
- Construct: host or cells: CHO-K1
- Sequence (P41595 whole entry): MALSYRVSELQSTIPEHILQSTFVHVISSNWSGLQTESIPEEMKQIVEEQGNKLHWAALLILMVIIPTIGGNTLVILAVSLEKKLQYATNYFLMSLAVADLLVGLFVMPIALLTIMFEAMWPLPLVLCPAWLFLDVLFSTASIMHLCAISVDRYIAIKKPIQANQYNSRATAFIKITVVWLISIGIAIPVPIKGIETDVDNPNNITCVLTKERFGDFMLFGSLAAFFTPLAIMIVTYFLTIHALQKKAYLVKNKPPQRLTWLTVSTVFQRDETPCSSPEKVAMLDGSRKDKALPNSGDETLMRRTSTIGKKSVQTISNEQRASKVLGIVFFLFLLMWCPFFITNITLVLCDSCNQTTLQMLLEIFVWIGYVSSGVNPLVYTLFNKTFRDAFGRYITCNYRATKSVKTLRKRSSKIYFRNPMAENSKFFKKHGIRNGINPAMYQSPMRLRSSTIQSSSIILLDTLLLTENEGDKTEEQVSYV
- experiment: 5-HT2B receptor binding, 3H-LSD ligand displacement assay
- protocol_conditions: 0.001 uM compound
assay_endpoint: inhibition at 0.001 µM (%)
Answers are plain numbers, in %.

Examples with their reported inhibition at 0.001 µM follow.
> print(dat)
                                   compound  measured.value
1  COc1cc(CNC(=N)N2CC(C)C(c3ccccc3O)=N2)cc(OC)c1 (stereo not shown)              13
2  CC1CN(C(=N)N[C@H](C)c2ccccc2)N=C1c1ccccc1O (stereo partly shown)              36
3  COc1c(Cl)cccc1C1=NN(C(=N)Nc2ccc(Cl)cc2)CC1C (stereo not shown)              41

Here are 7 compounds. What values of inhibition at 0.001 µM were reported for them?
1. CC1CN(C(=N)Nc2ccc(C(F)(F)F)cc2)N=C1c1cccc(Cl)c1O (stereo not shown)
2. COc1c(Cl)cccc1C1=NN(C(=N)NC2CCCCC2)CC1C (stereo not shown)
3. CCCCCCNC(=N)N1CC(C)C(c2cccc(Cl)c2O)=N1 (stereo not shown)
4. CC1CN(C(=N)NO)N=C1c1ccccc1O (stereo not shown)
5. CC1CN(C(=N)NCc2ccccc2)N=C1c1cccc(Cl)c1O (stereo not shown)
6. CC1CN(C(=N)Nc2ccc(Cl)cc2)N=C1c1cccc(Cl)c1O (stereo not shown)
7. C[C@H]1CN(C(=N)N)N=C1c1cccc(Cl)c1O (single isomer, unassigned)

1. 59
2. 11
3. 62
4. 12
5. 76
6. 80
7. -1

Give me inhibition at 0.001 µM for each of these compounds, listed below.
1. C[C@H]1CN(C(=N)NCc2ccccc2)N=C1c1cccc(Cl)c1O (single isomer, unassigned)
2. CC1CN(C(=N)NCc2ccccc2)N=C1c1ccccc1O (stereo not shown)
3. COc1ccc(CNC(=N)N2CC(C)C(c3ccccc3O)=N2)cc1 (stereo not shown)

[2, 49, 20]

###

- test_target: 5-HT2B receptor (Homo sapiens)
- Construct: host or cells: CHO-K1
- experiment: 5-HT2B receptor binding, 3H-LSD ligand displacement assay
- protocol_conditions: 1 uM compound
Returns met if the recorded inhibition at 1 µM is greater than or equal to 90%, and not met otherwise.

Worked set:
> print(dat)
                                   molecule                     test.target  label.value
1  CC1CN(C(=N)N)N=C1c1cccc2ccccc12 (stereo not drawn)  5-HT2B receptor (Homo sapiens)          met
2  CC1CN(C(=N)NCc2ccccc2)N=C1c1ccccc1O (stereo not drawn)  5-HT2B receptor (Homo sapiens)          met
3             CC1(C)CN(C(=N)N)N=C1c1ccccc1O  5-HT2B receptor (Homo sapiens)      not met
4  COc1ccc(C2=NN(C(=N)N)CC2)cc1OC [Example 16, reference compound]  5-HT2B receptor (Homo sapiens)      not met

Then this molecule:
Is the recorded value of inhibition at 1 µM equal to or greater than 90% for this molecule? COc1ccc(Cl)cc1C1=NN(C(=N)N)CC1C (stereo not drawn)
not met

###

- test_target: 5-HT2B receptor (Homo sapiens)
- Construct: host or cells: CHO-K1
- experiment: 5-HT2B receptor binding, 3H-LSD ligand displacement assay
- protocol_conditions: 10 uM compound
assay_endpoint: inhibition at 10 µM (%)
Give bare numbers, in %.

Some entries whose results are on file:
> print(dat)
                                   molecule  measured.value
1  COc1ccccc1C1=NN(C(=N)N)CC1C (stereo not shown)             101
2                N=C(N)N1CCC(c2ccccc2Cl)=N1             100
3              N=C(N)N1CCC(c2cc(F)ccc2F)=N1              94

Form field: inhibition at 10 µM recorded for COc1ccc(C2=NN(C(=N)N)CC2)cc1 [Example 15, reference compound] with 5-HT2B receptor (Homo sapiens) (enter value)
56
